assay: Solubility test for loteprednol etabonate (LE), Example 1-1: different amino acids, oligopeptides or monosaccharide as stabilizer; type: physicochemical; settings: aqueous with cosolvent or surfactant or cyclodextrin, thermodynamic from solid; LE feeding 4000 μg; re-dissolved in 2 mL deionized water, pH 5.5, room temperature, 0.22 μm filtered, HPLC
ASSAY_METRIC: solubility
Units required after the number.

q: Field request: solubility | item: CCOC(=O)O[C@]1(C(=O)OCCl)CC[C@H]2[C@@H]3CCC4=CC(=O)C=C[C@]4(C)[C@H]3[C@@H](O)C[C@@]21C [LE, loteprednol etabonate]
a: 1.5 µg/mL
